Provenance of the data: patent US20230081426A1

Kindly supply the reported IC50 values for the records listed here.
TEST SYSTEM: G12D-mutant human KRAS (amino acid residues 1-188) (Homo sapiens, UniProt P01116, G12D)
Construct: G12D or G12C-mutant human KRAS (amino acid residues 1-188) with FLAG tag; made in house; host or cells: E. coli
MEASUREMENT NOTES: KRAS Binding Disruption Assay (AlphaScreen; biotinylated KRpep-2d analogue or RAF1-RBD), G12D
TEST PARAMETERS: KRAS G12D; geometric mean; read-out: KRAS GMean IC50 (uM) MUTATION: G12D

What IC50 value was documented for this compound, `NC(=O)NCCN1[C@@H]2CC[C@H]1CN(c1nc(OCC34CCCN3CCC4)nc3c(F)c(-c4cc(O)cc5ccccc45)ccc13)C2` ?
0.0001 to 10 µM

What IC50 value was documented for this compound, `CN1CCC[C@H]1COc1nc(N2C[C@H]3CC[C@@H](C2)N3)c2ccc(-c3ccccc3O)cc2n1` ?
100 to 1000 µM

What IC50 value was documented for this compound, `Oc1cc(-c2ccc3c(N4C[C@H]5CC[C@@H](C4)N5)nc(OCC4(O)CC4)nc3c2F)c2ccccc2c1` ?
0.0001 to 10 µM

What IC50 value was documented for this compound, `COc1cccc2c(-c3c(F)cc4c(N5C[C@H]6CC[C@@H](C5)N6)nc(OC[C@@H]5CCCN5C)nc4c3F)c[nH]c12` ?
10 to 100 µM

What IC50 value was documented for this compound, `Oc1cc(-c2c(Cl)cc3c(N4C[C@H]5CC[C@@H](C4)N5)nc(OCCCN4CCC(F)(F)C4)nc3c2F)c2ccccc2c1` ?
0.0001 to 10 µM

What IC50 value was documented for this compound, `CN1CCC[C@H]1COc1nc(N2C[C@H]3CC[C@@H](C2)N3)c2ccc(-c3c[nH]c4ncccc34)cc2n1` ?
100 to 1000 µM

What IC50 value was documented for this compound, `CN1CCC[C@H]1COc1nc(N2[C@@H]3CC[C@H]2CNC3)c2ccc(-c3cccc(C(N)=O)n3)cc2n1` ?
100 to 1000 µM

====

TEST SYSTEM: G12V-mutant human KRAS (amino acid residues 1-188) (Homo sapiens, UniProt P01116, G12V)
Construct: G12V-mutant human KRAS (amino acid residues 1-188) with FLAG tag was purified from E. coli; made in house; host or cells: E. coli
MEASUREMENT NOTES: KRAS Binding Competition Assay (AlphaScreen; biotinylated KRpep-2d analogue), G12V
TEST PARAMETERS: geometric mean, read-out: KRAS GMean IC50 (uM) MUTATION: G12V
PROPERTY MEASURED: IC50

What IC50 value was documented for this molecule, `Fc1c(-c2c(C(F)(F)F)ccc3[nH]ncc23)ccc2c(N3C[C@H]4CC[C@@H](C3)N4)nc(OCC34CCCN3CCC4)nc12` ?
10 to 100 µM

What IC50 value was documented for this molecule, `CN1CCC[C@H]1COc1nc(N2[C@@H]3CC[C@H]2CN(CC(=O)N2CCC(N)CC2)C3)c2ccc(-c3cc(O)cc4ccccc34)cc2n1` ?
100 to 1000 µM

What IC50 value was documented for this molecule, `Fc1c(-c2c[nH]c3cccc(C(F)F)c23)ccc2c(N3C[C@H]4CC[C@@H](C3)N4)nc(OCC34CCCN3CCC4)nc12` ?
0.0001 to 10 µM

What IC50 value was documented for this molecule, `CN1CCC[C@@H](COc2nc(N3C[C@H]4CC[C@@H](C3)N4)c3ccc(-c4cc(O)cc5ccccc45)cc3n2)C1` ?
10 to 100 µM

====

Kindly supply the reported IC50 values for the records listed here.
TEST SYSTEM: G12D-mutant human KRAS (amino acid residues 1-188) (Homo sapiens, UniProt P01116, G12D)
Construct: G12D or G12C-mutant human KRAS (amino acid residues 1-188) with FLAG tag; made in house; host or cells: E. coli
MEASUREMENT NOTES: KRAS Binding Disruption Assay (AlphaScreen; biotinylated KRpep-2d analogue or RAF1-RBD), G12D
TEST PARAMETERS: KRAS G12D; geometric mean; read-out: KRAS GMean IC50 (uM) MUTATION: G12D

What IC50 value was documented for this compound, `CN1CCN(CCCC(=O)N2[C@@H]3CC[C@H]2CN(c2nc(OCC45CCCN4CCC5)nc4c(F)c(-c5cc(O)cc6ccccc56)ccc24)C3)CC1` ?
0.0001 to 10 µM

What IC50 value was documented for this compound, `C[C@H]1CCCN1CCc1nc(N2C[C@H]3CC[C@@H](C2)N3)c2ccc(-c3cc(O)cc4ccccc34)c(F)c2n1` ?
0.0001 to 10 µM

What IC50 value was documented for this compound, `O=C1CCC2(CN(c3nc(N4C[C@H]5CC[C@@H](C4)N5)c4ccc(-c5cc(O)cc6ccccc56)c(F)c4n3)C2)N1` ?
0.0001 to 10 µM

====

TEST SYSTEM: G12V-mutant human KRAS (amino acid residues 1-188) (Homo sapiens, UniProt P01116, G12V)
Construct: G12V-mutant human KRAS (amino acid residues 1-188) with FLAG tag was purified from E. coli; made in house; host or cells: E. coli
MEASUREMENT NOTES: KRAS Binding Competition Assay (AlphaScreen; biotinylated KRpep-2d analogue), G12V
TEST PARAMETERS: geometric mean, read-out: KRAS GMean IC50 (uM) MUTATION: G12V
PROPERTY MEASURED: IC50

What IC50 value was documented for this compound, `CN1CCC(Oc2nc(N3C[C@H]4CC[C@@H](C3)N4)c3cc(Cl)c(-c4cc(O)cc5ccccc45)c(F)c3n2)CC1` ?
10 to 100 µM

What IC50 value was documented for this compound, `Fc1cc2c(N3C[C@H]4CC[C@@H](C3)N4)nc(OCC34CCCN3CCC4)nc2c(F)c1-c1c[nH]c2ccc(Cl)c(F)c12` ?
0.0001 to 10 µM

What IC50 value was documented for this compound, `CN(C)CCNS(=O)(=O)N1[C@@H]2CC[C@H]1CN(c1nc(OCC34CCCN3CCC4)nc3c(F)c(-c4cc(O)cc5ccccc45)ccc13)C2` ?
0.0001 to 10 µM

What IC50 value was documented for this compound, `CN1CCC[C@H]1COc1nc(N2C[C@H]3CC[C@@H](C2)N3)c2ccc(-c3ccccc3)cc2n1` ?
100 to 1000 µM

What IC50 value was documented for this compound, `CN1CCN(CCCC(=O)N2C3COCC2CN(c2nc(OC[C@@H]4CCCN4C)nc4c(F)c(-c5cc(O)cc6ccccc56)ccc24)C3)CC1` ?
10 to 100 µM

What IC50 value was documented for this compound, `CN1CCC[C@H]1COc1nc(N2C[C@H]3CC[C@@H](C2)N3C(=O)[C@@H](N)CO)c2ccc(-c3cc(O)cc4ccccc34)c(F)c2n1` ?
10 to 100 µM

What IC50 value was documented for this compound, `Oc1cc(-c2ccc3c(N4C[C@H]5CC[C@@H](C4)N5)nc(OC[C@@]45CCCN4C[C@H](F)C5)nc3c2F)c2c(Cl)cccc2c1` ?
0.0001 to 10 µM

What IC50 value was documented for this compound, `CN1CCC[C@H]1COc1nc(N2C[C@H]3CC[C@@H](C2)N3C(=O)[C@@H]2C[C@@H](O)CN2)c2ccc(-c3cc(O)cc4ccccc34)c(F)c2n1` ?
10 to 100 µM

What IC50 value was documented for this compound, `Cc1cccc2cc(O)cc(-c3ccc4c(N5C[C@H]6CC[C@@H](C5)N6)nc(OCC56CCCN5CCC6)nc4c3F)c12` ?
0.0001 to 10 µM

What IC50 value was documented for this compound, `O=C(N[C@@H]1CCCNC1)N1[C@@H]2CC[C@H]1CN(c1nc(OCC34CCCN3CCC4)nc3cc(-c4cc(O)cc5ccccc45)ccc13)C2` ?
0.0001 to 10 µM

What IC50 value was documented for this compound, `O=C(Cc1c[nH]cn1)N1[C@@H]2CC[C@H]1CN(c1nc(OCC34CCCN3CCC4)nc3c(F)c(-c4cc(O)cc5ccccc45)ccc13)C2` ?
0.0001 to 10 µM

What IC50 value was documented for this compound, `N#CCC(=O)N1[C@@H]2CC[C@H]1CN(c1nc(OC[C@@]34CCCN3C[C@H](F)C4)nc3c(F)c(-c4cc(O)cc5cccc(Cl)c45)ccc13)C2` ?
0.0001 to 10 µM

What IC50 value was documented for this compound, `COc1ccc2[nH]cc(-c3c(Cl)cc4c(N5C[C@H]6CC[C@@H](C5)N6)nc(OC[C@@H]5CCCN5C)nc4c3F)c2c1` ?
10 to 100 µM

====

TEST SYSTEM: G12C-mutant human KRAS (amino acid residues 1-188) (Homo sapiens, UniProt P01116, G12C)
Construct: G12D or G12C-mutant human KRAS (amino acid residues 1-188) with FLAG tag; made in house; host or cells: E. coli
MEASUREMENT NOTES: KRAS Binding Disruption Assay (AlphaScreen; biotinylated KRpep-2d analogue or RAF1-RBD), G12C
TEST PARAMETERS: geometric mean, read-out: KRAS GMean IC50 (uM) MUTATION: G12C
Kindly supply the reported IC50 values for the records listed here.

What IC50 value was documented for this compound, Oc1cc(-c2ccc3c(N4C[C@H]5CC[C@@H](C4)N5)nc(CNC4CC4)nc3c2)c2ccccc2c1 [P-0673] ?
10 to 100 µM

What IC50 value was documented for this compound, CN1CCN(CCC(=O)N2[C@@H]3CC[C@H]2CN(c2nc(OC[C@@H]4CCCN4C)nc4cc(-c5cc(O)cc6ccccc56)ccc24)C3)CC1 [P-0116] ?
10 to 100 µM

What IC50 value was documented for this compound, O=C1NCCC1NC(=O)N1[C@@H]2CC[C@H]1CN(c1nc(OCC34CCCN3CCC4)nc3cc(-c4cc(O)cc5ccccc45)ccc13)C2 (stereo partly drawn) [P-0135] ?
0.0001 to 10 µM

What IC50 value was documented for this compound, COC(=O)CCC(=O)N1[C@@H]2CC[C@H]1CN(c1nc(OCC34CCCN3CCC4)nc3cc(-c4cc(O)cc5ccccc45)ccc13)C2 [P-0068] ?
0.0001 to 10 µM

What IC50 value was documented for this compound, Cc1cc(COc2nc(N3C[C@H]4CC[C@@H](C3)N4)c3ccc(-c4cc(O)cc5ccccc45)c(F)c3n2)no1 [P-0777] ?
10 to 100 µM

What IC50 value was documented for this compound, CN1CC[C@@H](NC(=O)N2[C@@H]3CC[C@H]2CN(c2nc(OCC45CCCN4CCC5)nc4cc(-c5cc(O)cc6ccccc56)ccc24)C3)C1 [P-0133] ?
0.0001 to 10 µM
